target: Prostaglandin G/H synthase 1 (Homo sapiens); assay: Inhibition of COX-1 in human immunoassay; parameters: concentration or dose not given beside the values
readout-label: Enzyme inhibition
Express your answer as a number followed by its unit.

Known results for compounds:
IN: Respond only with Enzyme inhibition recorded for `NS(=O)(=O)c1ccc(Cl)c(C(=O)Nc2cccc([N+](=O)[O-])c2)c1`
OUT: 23%

IN: Respond only with Enzyme inhibition recorded for `C/C(=N\Nc1ccc(S(N)(=O)=O)cc1)c1ccccn1`
OUT: 38%

IN: Respond only with Enzyme inhibition recorded for `CS(=O)(=O)c1cc(Nc2ccc(Br)cc2)ncn1`
OUT: 14%

IN: Respond only with Enzyme inhibition recorded for `NS(=O)(=O)c1ccc(Nc2nc(-c3ccccc3)cs2)cc1`
OUT: 61%

IN: Respond only with Enzyme inhibition recorded for `NS(=O)(=O)c1ccc(CCNS(=O)(=O)c2ccc(Cl)cc2Cl)cc1`
OUT: 23%

More entries:
IN: Respond only with Enzyme inhibition recorded for `NS(=O)(=O)c1ccc(CCNC(=O)c2ccccc2Br)cc1`
OUT: 46%

---

target: Prostaglandin G/H synthase 2 (Homo sapiens) (UniProt P35354); experiment: Inhibition of COX-2 in human immunoassay; parameters: concentration or dose not given beside the values
Sequence (P35354 whole entry): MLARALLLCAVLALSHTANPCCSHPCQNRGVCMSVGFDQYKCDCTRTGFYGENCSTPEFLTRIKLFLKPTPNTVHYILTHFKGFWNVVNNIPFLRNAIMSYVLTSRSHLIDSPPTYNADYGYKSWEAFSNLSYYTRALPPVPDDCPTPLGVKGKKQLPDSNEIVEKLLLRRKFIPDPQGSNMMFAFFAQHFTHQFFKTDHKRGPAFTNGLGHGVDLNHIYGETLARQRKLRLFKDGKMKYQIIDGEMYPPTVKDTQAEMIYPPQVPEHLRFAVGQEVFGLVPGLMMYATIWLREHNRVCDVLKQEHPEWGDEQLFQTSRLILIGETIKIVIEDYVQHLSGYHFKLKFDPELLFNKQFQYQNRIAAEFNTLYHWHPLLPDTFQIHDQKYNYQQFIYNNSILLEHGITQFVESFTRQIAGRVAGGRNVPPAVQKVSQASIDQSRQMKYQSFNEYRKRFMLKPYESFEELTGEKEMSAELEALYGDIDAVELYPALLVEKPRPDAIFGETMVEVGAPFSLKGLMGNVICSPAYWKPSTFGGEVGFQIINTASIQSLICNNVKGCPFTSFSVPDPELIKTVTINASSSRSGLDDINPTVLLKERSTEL
Values of Enzyme inhibition greater than or equal to 30% map to true; values below map to false.

Worked cases, answers included:
IN: For this molecule, is measured Enzyme inhibition 30% or higher? `NS(=O)(=O)c1ccc(NC2=CC(=O)C(=O)c3ccccc32)cc1`
OUT: false

IN: For this molecule, is measured Enzyme inhibition 30% or higher? `NS(=O)(=O)c1ccc(Nc2nc(-c3ccccc3)cs2)cc1`
OUT: false

IN: For this molecule, is measured Enzyme inhibition 30% or higher? `Cc1onc(-c2ccccc2)c1C(=O)Nc1ccc(S(N)(=O)=O)cc1`
OUT: true

IN: For this molecule, is measured Enzyme inhibition 30% or higher? `C/C(=N\Nc1ccc(S(N)(=O)=O)cc1)c1ccccn1`
OUT: true

IN: For this molecule, is measured Enzyme inhibition 30% or higher? `NS(=O)(=O)c1ccc(CCNS(=O)(=O)c2ccccc2[N+](=O)[O-])cc1`
OUT: false

IN: For this molecule, is measured Enzyme inhibition 30% or higher? `NS(=O)(=O)c1ccc(NCc2cnc3ccccc3n2)cc1`
OUT: true

IN: For this molecule, is measured Enzyme inhibition 30% or higher? `NS(=O)(=O)c1ccc(Cl)c(C(=O)Nc2cccc([N+](=O)[O-])c2)c1`
OUT: true

IN: For this molecule, is measured Enzyme inhibition 30% or higher? `NS(=O)(=O)c1ccc(CCNC(=O)c2ccccc2Br)cc1`
OUT: false

IN: For this molecule, is measured Enzyme inhibition 30% or higher? `CS(=O)(=O)c1cc(Nc2ccc(Br)cc2)ncn1`
OUT: true

IN: For this molecule, is measured Enzyme inhibition 30% or higher? `NS(=O)(=O)c1ccc(NC(=S)NC(=O)c2ccc(Cl)cc2Cl)cc1`
OUT: false

Now take the following molecule into account.
IN: For this molecule, is measured Enzyme inhibition 30% or higher? `NS(=O)(=O)c1ccc(N/C=C/C(=O)c2ccncc2)cc1`
OUT: true

---

molecular target: Prostaglandin G/H synthase 1 (Homo sapiens); assay: Inhibition of COX-1 in human immunoassay; set-up: concentration or dose not given beside the values
Values of Enzyme inhibition greater than or equal to 10% map to Criterion met; values below map to Criterion not met.

IN: For this molecule, is measured Enzyme inhibition 10% or higher? `NS(=O)(=O)c1ccc(NC2=CC(=O)C(=O)c3ccccc32)cc1`
OUT: Criterion met

IN: For this molecule, is measured Enzyme inhibition 10% or higher? `NS(=O)(=O)c1ccc(NCc2cnc3ccccc3n2)cc1`
OUT: Criterion met

IN: For this molecule, is measured Enzyme inhibition 10% or higher? `NS(=O)(=O)c1ccc(CCNS(=O)(=O)c2ccccc2[N+](=O)[O-])cc1`
OUT: Criterion met

IN: For this molecule, is measured Enzyme inhibition 10% or higher? `NS(=O)(=O)c1ccc(N/C=C/C(=O)c2ccncc2)cc1`
OUT: Criterion met

IN: For this molecule, is measured Enzyme inhibition 10% or higher? `NS(=O)(=O)c1ccc(NC(=S)NC(=O)c2ccc(Cl)cc2Cl)cc1`
OUT: Criterion not met

Now take the following molecule into account.
IN: For this molecule, is measured Enzyme inhibition 10% or higher? `Cc1onc(-c2ccccc2)c1C(=O)Nc1ccc(S(N)(=O)=O)cc1`
OUT: Criterion met
